measurement_notes: DRUGMATRIX: Phosphodiesterase PDE4 enzyme inhibition (substrate: [3H]cAMP + cAMP)
reported_conditions: u-937; Not Active = under 50% inhibition at 10 µM
recorded_metric: Ki

INSERT INTO results (molecule, recorded_metric, endpoint_result) VALUES
  ('CCOC(=O)c1ccc(N)cc1', 'Ki', 'Not Active'),
  ('COc1c(N2CCNC(C)C2)c(F)cc2c(=O)c(C(=O)O)cn(C3CC3)c12 (stereo not given)', 'Ki', 'Not Active'),
  ('CC(=O)CCCCn1c(=O)c2c(ncn2C)n(C)c1=O', 'Ki', 'Not Active'),
  ('NCC(=O)O', 'Ki', 'Not Active'),
  ('CC1=Nc2ccc(Cl)cc2S(=O)(=O)N1 [DIAZOXIDE]', 'Ki', 'Not Active'),
  ('COCc1c(C(C)C)nc(C(C)C)c(/C=C/[C@@H](O)C[C@@H](O)CC(=O)O)c1-c1ccc(F)cc1', 'Ki', 'Not Active'),
  ('CC(C)NC[C@H](O)COc1cccc2[nH]ccc12', 'Ki', 'Not Active'),
  ('C=C1CC[C@H](O)C/C1=C/C=C1\CCC[C@]2(C)[C@@H]([C@H](C)/C=C/[C@H](C)C(C)C)CC[C@@H]12', 'Ki', 'Not Active'),
  ('Oc1c(Cl)cc(Cl)cc1Sc1cc(Cl)cc(Cl)c1O', 'Ki', 'Not Active'),
  ('COc1cc(C(=O)NC2CCCNC2)cc(OC)c1OC (stereo not given) [TROXIPIDE]', 'Ki', 'Not Active'),
  ('Cc1ccc(C(=O)C(C)CN2CCCCC2)cc1 (stereo not given)', 'Ki', 'Not Active'),
  ('NCC1(CC(=O)O)CCCCC1', 'Ki', 'Not Active'),
  ('CCOC(=O)OC(C)OC1=C(C(=O)Nc2ccccn2)N(C)S(=O)(=O)c2ccccc21 (stereo not given)', 'Ki', 'Not Active'),
  ('CC(=O)[C@@]1(O)CC[C@H]2[C@@H]3C[C@H](C)C4=CC(=O)C=C[C@]4(C)[C@@]3(F)[C@@H](O)C[C@@]21C', 'Ki', 'Not Active'),
  ('CC(C)[C@H](N)C(=O)OCCOCn1cnc2c(=O)nc(N)[nH]c21', 'Ki', 'Not Active'),
  ('O=C1OC2(c3ccc(O)cc3Oc3cc(O)ccc32)c2ccccc21', 'Ki', 'Not Active'),
  ('NNC(=O)c1ccncc1', 'Ki', 'Not Active'),
  ('NS(=O)(=O)c1cc2c(cc1Cl)NCNS2(=O)=O [HYDROCHLOROTHIAZIDE]', 'Ki', 'Not Active'),
  ('COc1ccc(CN(CCN(C)C)c2ccccn2)cc1', 'Ki', 'Not Active'),
  ('c1ccc2[nH]c(-c3cscn3)nc2c1', 'Ki', 'Not Active'),
  ('CC[N+](CC)(CC)CCOc1cccc(OCC[N+](CC)(CC)CC)c1OCC[N+](CC)(CC)CC.[I-].[I-].[I-] [GALLAMINE TRIETHIODIDE]', 'Ki', 'Not Active'),
  ('CN(N=O)C(=O)N[C@@H](C=O)[C@@H](O)[C@H](O)[C@H](O)CO', 'Ki', 'Not Active'),
  ('CNCCC=C1c2ccccc2CCc2ccccc21', 'Ki', 'Not Active'),
  ('Nc1ccc(S(=O)(=O)Nc2ccnn2-c2ccccc2)cc1', 'Ki', 'Not Active'),
  ('COC(=O)[C@@H]1[C@H]2C[C@H]3c4[nH]c5ccccc5c4CCN3C[C@@H]2CC[C@@H]1O', 'Ki', 'Not Active'),
  ('Cc1ncc([N+](=O)[O-])n1CC(C)O (stereo not given)', 'Ki', 'Not Active'),
  ('N#C[C@H](O[C@@H]1O[C@H](CO[C@@H]2O[C@H](CO)[C@@H](O)[C@H](O)[C@H]2O)[C@@H](O)[C@H](O)[C@H]1O)c1ccccc1', 'Ki', 'Not Active'),
  ('CCC[C@@H]1C[C@@H](C(=O)N[C@@H]([C@H]2O[C@H](SC)[C@H](O)[C@@H](O)[C@H]2O)[C@@H](C)O)N(C)C1', 'Ki', 'Not Active'),
  ('C[C@]12Cc3c[nH]nc3C[C@@H]1CC[C@@H]1[C@@H]2CC[C@@]2(C)[C@H]1CC[C@]2(C)O', 'Ki', 'Not Active'),
  ('CCCCOC(=O)c1ccc(N)cc1', 'Ki', 'Not Active');

* * *

tested_on: UniProt P21728
Sequence (P21728 whole entry): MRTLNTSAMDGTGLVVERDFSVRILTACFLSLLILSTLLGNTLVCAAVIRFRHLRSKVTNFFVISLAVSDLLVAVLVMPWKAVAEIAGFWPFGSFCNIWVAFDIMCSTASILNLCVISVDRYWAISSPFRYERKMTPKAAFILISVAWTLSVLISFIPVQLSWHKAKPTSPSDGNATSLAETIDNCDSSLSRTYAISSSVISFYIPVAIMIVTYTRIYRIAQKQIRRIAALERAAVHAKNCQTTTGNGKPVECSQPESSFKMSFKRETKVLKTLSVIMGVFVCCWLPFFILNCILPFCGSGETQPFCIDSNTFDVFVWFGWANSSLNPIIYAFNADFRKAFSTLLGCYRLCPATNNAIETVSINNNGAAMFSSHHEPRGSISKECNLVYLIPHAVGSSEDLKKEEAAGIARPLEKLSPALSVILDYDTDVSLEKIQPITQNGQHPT
measurement_notes: DRUGMATRIX: Dopamine D1 radioligand binding (ligand: [3H] SCH-23390)
Assay type: cell membranes, CHO, Membrane
reported_conditions: cho; Not Active = under 50% inhibition at 10 µM
Where a SMILES comes first, the peptide text is derived from it. Bridges are numbered along the chain shown (N, C = ends). [ ]: non-standard residue; d: D form. The star is where a group is joined. Ileψ(thiazoline)Cys = CC[C@H](C)[C@H](N)C1=N[C@H](C(=O)*)CS1; dOrn = NCCC[C@@H](N)C(=O)O
recorded_metric: IC50

INSERT INTO results (compound, recorded_metric, endpoint_result) VALUES
  ('CC[C@H](C)[C@H](N)C1=N[C@H](C(=O)N[C@@H](CC(C)C)C(=O)N[C@H](CCC(=O)O)C(=O)N[C@H](C(=O)N[C@H]2CCCCNC(=O)[C@H](CC(N)=O)NC(=O)[C@@H](CC(=O)O)NC(=O)[C@H](Cc3cnc[nH]3)NC(=O)[C@@H](Cc3ccccc3)NC(=O)[C@H]([C@@H](C)CC)NC(=O)[C@@H](CCCN)NC2=O)[C@@H](C)CC)CS1 [BACITRACIN] ({Ileψ(thiazoline)Cys}-L[dE]IK[dOrn]I[dF]H[dD]N; lactam 4-C)', 'IC50', 'Not Active'),
  ('Cc1cc(NS(=O)(=O)c2ccc(N)cc2)no1 [SULFAMETHOXAZOLE]', 'IC50', 'Not Active'),
  ('O=C1OC2(c3ccc(O)cc3Oc3cc(O)ccc32)c2ccccc21 [FLUORESCEIN]', 'IC50', 'Not Active');

* * *

tested_on: Alpha-1D adrenergic receptor (Homo sapiens)
Sequence (P25100 whole entry): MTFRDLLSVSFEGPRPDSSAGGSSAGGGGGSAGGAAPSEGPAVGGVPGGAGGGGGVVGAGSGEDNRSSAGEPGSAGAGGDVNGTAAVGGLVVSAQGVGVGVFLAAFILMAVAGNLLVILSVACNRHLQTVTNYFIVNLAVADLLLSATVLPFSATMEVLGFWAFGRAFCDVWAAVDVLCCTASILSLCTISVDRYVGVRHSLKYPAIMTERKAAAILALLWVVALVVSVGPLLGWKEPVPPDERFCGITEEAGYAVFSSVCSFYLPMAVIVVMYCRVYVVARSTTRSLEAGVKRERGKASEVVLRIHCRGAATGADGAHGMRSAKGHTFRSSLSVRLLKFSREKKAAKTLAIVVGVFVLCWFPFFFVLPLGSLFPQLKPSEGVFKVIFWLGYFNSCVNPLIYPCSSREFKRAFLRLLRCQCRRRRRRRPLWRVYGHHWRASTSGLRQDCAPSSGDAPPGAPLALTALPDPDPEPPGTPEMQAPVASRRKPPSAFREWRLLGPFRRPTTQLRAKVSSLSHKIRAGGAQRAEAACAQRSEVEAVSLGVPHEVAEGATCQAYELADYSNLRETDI
Assay type: cell membranes, HEK293, Membrane
reported_conditions: hek293
recorded_metric: IC50

INSERT INTO results (substance, endpoint_result) VALUES
  ('IVERMECTIN', 'Not Active'),
  ('GOLD SODIUM THIOMALATE', 'Not Active'),
  ('OXALIPLATIN', 'Not Active'),
  ('CISPLATIN', 'Not Active'),
  ('CARBOPLATIN', 'Not Active');

* * *

tested_on: Delta-type opioid receptor (Homo sapiens)
Sequence (P41143 whole entry): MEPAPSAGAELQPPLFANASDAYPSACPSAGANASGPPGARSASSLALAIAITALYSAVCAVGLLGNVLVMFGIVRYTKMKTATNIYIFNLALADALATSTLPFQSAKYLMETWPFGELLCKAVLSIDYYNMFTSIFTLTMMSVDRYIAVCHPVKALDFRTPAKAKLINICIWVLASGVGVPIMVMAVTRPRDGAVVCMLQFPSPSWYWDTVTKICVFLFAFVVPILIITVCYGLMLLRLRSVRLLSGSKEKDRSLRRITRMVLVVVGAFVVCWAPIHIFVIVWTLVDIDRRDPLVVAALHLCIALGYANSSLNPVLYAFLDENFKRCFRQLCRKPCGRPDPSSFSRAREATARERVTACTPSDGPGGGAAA
Assay type: cell membranes, HEK293, Membrane
reported_conditions: hek293
recorded_metric: IC50

INSERT INTO assay_data (smiles_structure, tested_on, recorded_metric, endpoint_result) VALUES
  ('CO[C@@H]1[C@@H](O[C@@H]2O[C@H](C)[C@@H](O[C@H]3C[C@@](C)(O)[C@@H](OC(=O)CC(C)C)[C@H](C)O3)[C@H](N(C)C)[C@H]2O)[C@@H](CC=O)C[C@@H](C)[C@@H](O)/C=C/C=C/C[C@@H](C)OC(=O)C[C@H]1O', 'Delta-type opioid receptor (Homo sapiens)', 'IC50', 'Not Active'),
  ('O=c1cc(-c2ccccc2)oc2c1ccc1ccccc12', 'Delta-type opioid receptor (Homo sapiens)', 'IC50', 'Not Active'),
  ('CN(C)[C@@H]1C(O)=C(C(N)=O)C(=O)[C@@]2(O)C(O)=C3C(=O)c4c(O)cccc4[C@@](C)(O)[C@H]3C[C@@H]12', 'Delta-type opioid receptor (Homo sapiens)', 'IC50', 'Not Active');

* * *

tested_on: Glucocorticoid receptor (Homo sapiens, UniProt P04150)
Sequence (P04150 whole entry): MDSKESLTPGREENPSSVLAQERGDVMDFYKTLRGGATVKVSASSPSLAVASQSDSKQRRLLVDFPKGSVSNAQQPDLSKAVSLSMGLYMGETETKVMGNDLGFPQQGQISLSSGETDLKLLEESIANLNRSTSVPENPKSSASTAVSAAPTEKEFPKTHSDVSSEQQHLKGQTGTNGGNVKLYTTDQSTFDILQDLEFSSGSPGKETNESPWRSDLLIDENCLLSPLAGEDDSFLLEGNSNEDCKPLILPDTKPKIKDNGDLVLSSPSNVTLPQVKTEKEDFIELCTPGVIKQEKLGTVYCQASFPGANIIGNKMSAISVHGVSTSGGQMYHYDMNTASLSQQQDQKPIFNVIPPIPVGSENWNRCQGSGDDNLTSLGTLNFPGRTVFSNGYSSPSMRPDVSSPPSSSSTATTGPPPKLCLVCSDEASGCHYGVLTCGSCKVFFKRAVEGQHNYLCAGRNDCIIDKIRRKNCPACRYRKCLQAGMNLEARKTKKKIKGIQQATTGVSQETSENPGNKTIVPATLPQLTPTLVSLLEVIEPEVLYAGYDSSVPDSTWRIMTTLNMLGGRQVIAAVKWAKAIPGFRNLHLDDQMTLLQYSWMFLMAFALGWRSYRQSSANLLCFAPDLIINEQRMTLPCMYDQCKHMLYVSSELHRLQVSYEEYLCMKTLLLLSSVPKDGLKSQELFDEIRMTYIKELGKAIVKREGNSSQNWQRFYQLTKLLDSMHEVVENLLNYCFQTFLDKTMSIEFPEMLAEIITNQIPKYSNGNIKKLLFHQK
measurement_notes: biochemical
pIC50: −log10 of the molar value.
pIC50 reference
recorded_metric: pIC50

INSERT INTO assay_data (compound, endpoint_result) VALUES
  ('CC(=O)S[C@@H]1CC2=CC(=O)CC[C@]2(C)[C@H]2CC[C@@]3(C)[C@@H](CC[C@@]34CCC(=O)O4)[C@H]12 [SPIRONOLACTONE]', 5.72),
  ('CC(=O)OCC(=O)[C@@]1(OC(C)=O)[C@@H](C)C[C@H]2[C@@H]3C[C@H](F)C4=CC(=O)C=C[C@]4(C)[C@@]3(F)[C@@H](O)C[C@@]21C [DIFLORASONE DIACETATE]', 8.19),
  ('CC(=O)[C@@]1(O)CC[C@H]2[C@@H]3C[C@H](C)C4=CC(=O)C=C[C@]4(C)[C@@]3(F)[C@@H](O)C[C@@]21C [FLUOROMETHOLONE]', 8.46),
  ('Clc1ccccc1C(c1ccccc1)(c1ccccc1)n1ccnc1 [CLOTRIMAZOLE]', 5.49);
